Molecular target: T1, cynomolgus monkey HVEM (cynomolgus monkey, UniProt A0A2K5W0R1 39-203); note: test concentration or dose not given here
T1 sequence: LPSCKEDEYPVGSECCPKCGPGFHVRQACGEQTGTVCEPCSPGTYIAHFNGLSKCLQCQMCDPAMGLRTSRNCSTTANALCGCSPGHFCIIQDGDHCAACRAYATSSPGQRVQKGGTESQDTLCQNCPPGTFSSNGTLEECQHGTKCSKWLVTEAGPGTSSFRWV
Experiment: ELISA
QUANTITY_MEASURED: ELISA signal

[
  {
    "BINDER": "Ab_003 (H5S14-3A3A) (antibody, V domains shown, also called Ab_3) VH: QIQLVQSGPELKKPGETVKISCKASGYTFTNYGVNWVKQAPGKDLKWMGWINTYTGEPTYADDFKGRFAFSLETSASTAYLQINNLKNEDMATYFCTSRSWVLWGQGTLVTVSA VL: QIVLTQSPAIMSASLGEEITLTCSASSSVSYMQWYQQKSGTSPKLLIYSTSNLASGVPSRFSGSGSGTFYSLTISSVEAEDAADYYCHQWSSYPTFGGGTELEI",
    "RESULT": 2.29
  },
  {
    "BINDER": "Ab_058 (H5S19-6A8A) (antibody, V domains shown, also called Ab_58) VH: EVQLVESGGGLVKPGGSLKLSCAASGFTFNIYTMSWVRQSPEMRLEWVAEISSGGSHTYYPDTVTGRFTISRDNAKNTLYLEMSSLRSEDTAIYYCARGGSLFDYWGQGTTLTVSS VL: DVQITQSPSYLAASPGETITINCRTSKNISKYLAWYQEKPGKTNKLLIYSGSTLQSGIPSRFSGSGSGTDFTLTISSLEPEDFVMYHCQQHNEYPWTFGGGTKLEIK",
    "RESULT": 0.064
  },
  {
    "BINDER": "Ab_078 (H5S20-45A34A) (antibody, V domains shown, also called Ab_78) VH: EVQLQQSGAELVRSGASVKLSCAASGFNIKDYYMHWVKQRPEQGLEWIGWIDPENGDTEFAPKFQGKATLTADTSSNTAYLQLSSLTSEDTAVYYCNTRTLGYWGQGTLVTVSA VL: QIVLTQSPALMSASPGEKVTMTCTASSSVSYMYWYQQKPRSSPKPWIYLTSNLASGVPARFSGSGSGTSYSLTISSMEAEDAATYYCQQWSSNPLTFGAGTKLELR",
    "RESULT": 0.063
  }
]

## Task Look up and report measured ELISA signal for this entry: Ab_025 (H5S15-2A2A) (antibody, V domains shown, also called Ab_25) VH: EVQLQQSGAELVKPGASVKLSCTASGFNIKDTYMHWVKQRPEQGLEWIGRIDPANDNTKYDPKFQGKATITADTSSNTAYLQLSSLTSEDTAVYYCARVYYAMDYWGQGTSVTVSS VL: DIQMTQSPASLSASVGETVTITCRASENIYSYLAWYQQKQGKSPQLLVYNAKTLAEGVPSRFSGSGSGTQFSLKINSLQPEDFGSYYCQHHYGTYTFGGGTKLEIK
## Result 3.16

## Task Look up and report measured ELISA signal for this entry: Ab_057 (H5S19-5A7A) (antibody, V domains shown, also called Ab_57) VH: DVKLVESGGGLVKPGGSLKLSCAASGFTFSSYTMSWVRQTPEKRLEWVATISSGGSYTYYPDSVKGRFTISRDNAKNTLYLQMSSLKSEDTAMYYCTRGDDYGFDYWGQGTTLTVSS VL: DVLMTQTPLSLPVSLGDQASISCRSSQSIVHSNGNTYLEWYLQKPGQSPKLLIYKVSNRFSGVPDRFSGSGSGTDFTLKISRVEAEDLGVYYCFQGSHVPWTFGGGTKLEIK
## Result 1.06
